experiment: Confirmatory growth inhibition assay, Mycobacterium tuberculosis H37Rv, absence of glycerol (AID 449764); settings: no glycerol; series mostly up to 100 µM;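 also: growth read after 7 days of incubation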
The campaign covered roughly 2,300 compounds. About 1,700 (74%) were called active. The set was probably picked from earlier hits. Some of the results follow. Measured potencies and affinities stand elsewhere.
measure: outcome

Below are worked cases with known answers.
>>> measurement("O=C1c2ccccc2C(=O)N1Nc1ccccc1")
"inactive"
>>> measurement("CC(=O)Oc1ccc2occ(C(=O)c3cccs3)c2c1")
"inactive"
>>> measurement("Cc1ccc(NC(=O)/C(Cl)=C\\c2ccccc2)cc1")
"inactive"
>>> measurement("COc1ccc(/C(O)=C/Sc2nnc(Cc3ccccc3)o2)cc1")
"inactive"

Inquiry: State the recorded outcome for this entry: Cc1ccc(N=Nc2c(C)[nH]n(C(N)=S)c2=O)cc1
Reply text: inactive

Inquiry: Next entry: CCOC(=O)Oc1ccc2oc(C)c(C(=O)OCCOC)c2c1
Reply text: inactive

Inquiry: How about this molecule: O=C(CN1CCN(c2ccc(F)cc2)CC1)N1CCC(Cc2ccccc2)CC1
Reply text: inactive

Inquiry: # repeat for O=C(Nc1ccc(-n2cccc2)cc1)C1CC1
Reply text: inactive

Inquiry: Field entry: COc1ccc(NC(C#N)c2ccc(OC)cc2)cc1 (stereo unspecified)
Reply text: inactive

Inquiry: Next molecule up: CCn1c(SCC(=O)Nc2nc3ccc(C)cc3s2)nc2c(c1=O)SC(C)C2 (stereo unspecified)
Reply text: inactive

Inquiry: Now the same for Cc1nn(-c2ccccc2)c(N2CCCC2)c1/C=N/Nc1ccc(S(N)(=O)=O)cc1[N+](=O)[O-]
Reply text: inactive

Inquiry: Try the molecule Clc1ccc(-c2ccc(C=Nc3ccc(N4CCOCC4)cc3)o2)c(Cl)c1
Reply text: inactive

Inquiry: Cc1ccc(Sc2ccc(/C=C3/C(=O)NN(c4ccccc4)C3=O)o2)cc1 ?
Reply text: inactive

Inquiry: What do you have for O=C(Nc1cc(Oc2ccccc2)cc([N+](=O)[O-])c1)C12CC3CC(C1)CC(n1cnc(Cl)n1)(C3)C2 ?
Reply text: inactive

Inquiry: Check CCCCc1ccc(NC(=S)N2CCN(c3ncccn3)CC2)cc1 too.
Reply text: inactive

Inquiry: Try this molecule too: CCC(C)n1c(NC(=O)c2ccccc2)c(C#N)c2nc3ccccc3nc21 (stereo unspecified)
Reply text: inactive

Inquiry: Please answer likewise for CCCCNC(=O)Nc1nnc(-c2ccc(OCC)cc2)o1
Reply text: inactive

Inquiry: C=CCn1c(N)cc(=O)nc1SC(CC)C(=O)Nc1ccc(C(C)=O)cc1 (stereo unspecified) ?
Reply text: inactive

Inquiry: What do you have for O=C(CCN1C(=O)C2C3C=CC(C3)C2C1=O)Oc1ccc2ccccc2c1 (stereo unspecified) ?
Reply text: inactive

Inquiry: # repeat for CCCCc1ccc(NC=C2C(=O)OC3(CCCCC3)OC2=O)cc1
Reply text: inactive

Inquiry: Ok, now Cc1ccc(F)cc1CNC(=O)c1cc(COc2ccc3ncccc3c2)on1
Reply text: inactive

Inquiry: Repeat for the following molecule: O=[N+]([O-])c1ccc(COc2ccc(-c3[nH]ncc3-c3ccc(Cl)cc3)c(O)c2)cc1
Reply text: inactive

Inquiry: Try the molecule CC(=O)Oc1c(C)cc(Cl)cc1C(=O)Nc1ccc([N+](=O)[O-])cc1Cl
Reply text: inactive

Inquiry: Thanks! And CCOc1ccc(-n2c(O)c(/C=N/Nc3nnc(C)c(=O)[nH]3)c3ccccc3c2=O)cc1 ?
Reply text: inactive

Inquiry: Cc1nn(-c2ccccc2)c(Cl)c1/C=N/NC(=O)c1ccc(CNc2ccccc2)o1 , same question.
Reply text: inactive

Inquiry: // same read-out, input: Fc1ccc(-c2nnc(CSc3nnc(-c4cccs4)o3)o2)cc1
Reply text: inactive

Inquiry: Now this one: CC(C)OC(=O)c1ccc(N)cc1
Reply text: inactive
